The reported numbers originate from PubChem BioAssay AID1963832.

Tested on: 885724-159-R-J1-PDC complex spheroid viability;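 note: spheroids exposed to compounds for 7 days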
test.name: Anticancer human tumor 885724-159-R-J1-PDC patient-derived pancreatic adenocarcinoma cell line growth inhibition [POLQ]
condition.summary: second compound 0.0316 µM; first compound 0.1 µM; hits give low values
viability, T/C values by entry

{"compound": "CC(C)n1c(=O)n(C)c2cnc3cc(F)c(-c4ccc(OCCCN5CCCCC5)nc4)cc3c21 + Cc1cccc(N(C)C(=O)C2C(O)CCN2c2nc(C)cc(C(F)(F)F)c2C#N)c1", "target.or.test.system": "885724-159-R-J1-PDC complex spheroid viability", "viability, T/C, %": 104}
{"compound": "Nc1ccn(C2OC(CO)C(O)C2(F)F)c(=O)n1 (stereo not drawn) + COC1C(OC(N)=O)C(O)C(Oc2ccc3c(O)c(NC(=O)c4ccc(O)c(CC=C(C)C)c4)c(=O)oc3c2C)OC1(C)C", "target.or.test.system": "885724-159-R-J1-PDC complex spheroid viability", "viability, T/C, %": 58.4}
{"compound": "CC1COCCN1c1cc(-c2ccnn2C)c2ccnc(-c3ccn[nH]3)c2n1 (stereo not drawn) + Nc1ccc(C#CCN(C(=O)Cc2ncc(C(F)(F)F)cc2C(F)(F)F)c2ccc(F)cc2)nn1", "target.or.test.system": "885724-159-R-J1-PDC complex spheroid viability", "viability, T/C, %": 60.6}
